# System: M14 melanoma
# ASSAY_DETAILS: NCI-60 one-dose screen, 48 h (100 = growth as untreated, 0 = no growth, -100 = all killed)
# EXPERIMENTAL_PARAMETERS: 10 µM
About 83,000 compounds went through this panel and 20% of them were active in at least one assay; those are over-represented in the sample as a whole.
MEASURED_PROPERTY: growth (%)
Could you give me the number in %? Just the number is fine.

CC(=O)Nc1ccc(Sc2ccc(NC(C)=O)cc2)cc1 :: 98.2

For the compound shown here, Nc1nc(SCC#CCCl)c2[nH]cnc2n1 , give the reported growth. 54.2

For the compound shown here, CCOC(=O)CSC(=S)SCC(=O)OCC , give the reported growth. 97.9

For the compound shown here, CCN(CC)CC(O)CNc1ccnc2cc(Cl)c(Cl)cc12 (stereo not given) , give the reported growth. 106

For the compound shown here, O=NN(CCCl)C(=O)Nc1ccc(NC(=O)N(CCCl)N=O)cc1 , give the reported growth. 93.1
